Tested On: rat MCH-1 (Rattus norvegicus, UniProt P97639)
Sequence (P97639 whole entry): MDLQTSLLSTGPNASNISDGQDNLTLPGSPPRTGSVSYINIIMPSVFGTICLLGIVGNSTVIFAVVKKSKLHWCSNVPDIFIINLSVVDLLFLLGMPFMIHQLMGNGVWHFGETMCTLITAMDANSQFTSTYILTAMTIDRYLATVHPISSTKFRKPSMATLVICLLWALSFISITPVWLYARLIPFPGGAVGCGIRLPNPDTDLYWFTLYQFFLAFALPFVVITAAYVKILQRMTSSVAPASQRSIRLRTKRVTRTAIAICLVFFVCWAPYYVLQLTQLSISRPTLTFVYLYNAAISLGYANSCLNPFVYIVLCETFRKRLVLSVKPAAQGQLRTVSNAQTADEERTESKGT
Protocol Description: Radioligand binding assay at cloned rat MCH1 receptor ([3H] Compound A)
Design: host or cells: Peak rapid 293 (Peakr293) cells, transient calcium phosphate transfection, membranes
Condition Parameters: cloned rat MCH1 receptor; 0.08 nM [3H] Compound A; Peakr293 cell membranes; read-out: Ki (nM) rMCH1
Property Label: Ki (nM)
Just the number please, in nM, no unit attached.

Example compounds with recorded Ki:
Compound: Cc1ccc(Oc2ccc3[nH]cc(CN4CCC(c5cccc(NC(=O)C(C)C)c5)CC4)c3c2)cc1
Ki (nM): 226
--
Compound: CC(C)C(=O)Nc1cccc(C2CCN(Cc3ccc4c(ccn4-c4ccccc4[N+](=O)[O-])c3)CC2)c1
Ki (nM): 27.4
--
Compound: CC(=O)c1cccc(OC(CCCCCN2CCC(c3cccc(NC(=O)C(C)C)c3)CC2)c2ccccc2)c1 (stereo not shown)
Ki (nM): 12.2
--
Compound: Cc1cccc2c(CCCN3CCC(c4cccc(NC(=O)C(C)C)c4)CC3)c(-c3ccc(C(F)(F)F)cc3)[nH]c12
Ki (nM): 20.6
--
Compound: Cc1ccc2[nH]c(-c3ccc(Cl)cc3)c(CCCN3CCC(c4cccc(NC(=O)C(C)C)c4)CC3)c2c1
Ki (nM): 12.5
--
Compound: Cc1cccc2c(CCCN3CCC(c4cccc(NC(=O)C(C)C)c4)CC3)c(-c3ccc(I)cc3)[nH]c12
Ki (nM): 8

Field: next compound
Lookup result for CC(C)C(=O)Nc1cccc(C2CCN(CC[C@H](NC(=O)Nc3ccccc3[N+](=O)[O-])c3ccccc3)CC2)c1 ; measured Ki: 530

----------
Tested On: rat MCH-1 (Rattus norvegicus, UniProt P97639)
Protocol Description: Radioligand binding assay at cloned rat MCH1 receptor ([3H] Compound A)
Design: host or cells: Peak rapid 293 (Peakr293) cells, transient calcium phosphate transfection, membranes
Condition Parameters: cloned rat MCH1 receptor; 0.08 nM [3H] Compound A; Peakr293 cell membranes; read-out: Ki (nM) rMCH1
Response field label takes Condition met when Ki is strictly below 30 nM and Condition not met in all other cases.

Compound: CCC(=O)Nc1cccc(C2CCN(Cc3cn(-c4ccccc4F)c4cc(Cl)ccc34)CC2)c1
Assigned Category: Condition met

**Q:** Does CC(C)(C)c1ccc(C(=O)CCCN2CCC(c3cccc(NC(=O)C4CC4)c3)CC2)cc1 have Ki strictly under 30 nM?
**A:** Condition not met

**Q:** Does CC(C)C(=O)Nc1cccc(C2CCN(Cc3c[nH]c4ccc([N+](=O)[O-])cc34)CC2)c1 have Ki strictly under 30 nM?
**A:** Condition not met

**Q:** Does COc1ccc(OC(CCCCN2CCC(c3cccc(NC(=O)C(C)C)c3)CC2)c2ccc(Cl)cc2)cc1 (stereo not shown) have Ki strictly under 30 nM?
**A:** Condition met

**Q:** Does CC(C)C(=O)Nc1cccc(C2CCN(Cc3ccc4c(ccn4-c4cccc(Cl)c4Cl)c3)CC2)c1 have Ki strictly under 30 nM?
**A:** Condition met

**Q:** Does CC(C)C(=O)Nc1cccc(C2CCN(CCCCNC(=O)c3cccnc3Oc3ccc(Cl)cc3)CC2)c1 have Ki strictly under 30 nM?
**A:** Condition met

**Q:** Does CC(C)C(=O)Nc1cccc(C2CCN(CCCc3c(-c4ccc(C(F)(F)F)cc4)[nH]c4c3ccc3ccccc34)CC2)c1 have Ki strictly under 30 nM?
**A:** Condition not met

FYI, the data here is from patent US6727264B1.
